I'd be grateful if you could share measured concentration at 4 h for these entries.
Assay: Drug concentration in C57BL/6J mouse plasma at 10 mg/kg, po administered as cassette dose measured at 4 hrs by LC/MS/MS analysis
Assay type: ADME, organism-based

A selection of reference data follows.
{"compound": "CCCCOc1nc(OCC(C)(C)O)c(-c2ccc(S(C)(=O)=O)cc2)cc1C(C)O (stereo not given)", "concentration at 4 h": "22.8 ng/mL"}
{"compound": "CCc1cnc(OCC(C)(C)O)c(-c2ccc(S(C)(=O)=O)cc2)c1", "concentration at 4 h": "21.8 ng/mL"}
{"compound": "CCCOc1nc(OCC(C)(C)O)c(-c2ccc(S(C)(=O)=O)cc2)cc1CO", "concentration at 4 h": "5.7 ng/mL"}

For every record below, what is its concentration at 4 h?
1. CCCCOc1nc(OCC2COC2)c(-c2ccc(S(C)(=O)=O)cc2)cc1CO
2. CCCCOc1nc(OCC(C)(C)O)c(-c2ccc(S(C)(=O)=O)cc2)cc1C(C)(C)O

**Result**
6.7 ng/mL
35.8 ng/mL

====

Test: Protein binding in human plasma assessed as unbound fraction
Assay type: ADME, cell-free
measuredEndpoint: fraction unbound
Numbers only.

A selection of reference data follows.
{"smiles": "CCCOc1nc(OCC(C)(C)O)c(-c2ccc(S(C)(=O)=O)cc2)cc1CO", "fraction unbound": 0.016}
{"smiles": "CCCCOc1nc(OCC2(O)CCC2)c(-c2ccc(S(C)(=O)=O)cc2)cc1CO", "fraction unbound": 0.005}
{"smiles": "Cc1ccc(-c2ncc(Cl)cc2-c2ccc(S(C)(=O)=O)cc2)cn1", "fraction unbound": 0.114}
{"smiles": "CC(C)(O)COc1nc(OCCCC(F)(F)F)c(CO)cc1-c1ccc(S(C)(=O)=O)cc1", "fraction unbound": 0.011}
{"smiles": "CC(C)(O)COc1nc(OCCC(F)(F)F)c(CO)cc1-c1ccc(S(C)(=O)=O)cc1", "fraction unbound": 0.01}

For every record below, what is its fraction unbound?
1. CCCCOc1nc(OCC(C)(C)O)c(-c2ccc(S(N)(=O)=O)cn2)cc1CO
2. CCCCOc1nc(OCC(C)(C)O)c(-c2ccc(S(C)(=O)=O)cc2)cc1CO

**Result**
1: 0.002; 2: 0.009

====

Molecular target: Prostaglandin G/H synthase 2 (Homo sapiens, UniProt P35354)
Sequence (P35354 whole entry): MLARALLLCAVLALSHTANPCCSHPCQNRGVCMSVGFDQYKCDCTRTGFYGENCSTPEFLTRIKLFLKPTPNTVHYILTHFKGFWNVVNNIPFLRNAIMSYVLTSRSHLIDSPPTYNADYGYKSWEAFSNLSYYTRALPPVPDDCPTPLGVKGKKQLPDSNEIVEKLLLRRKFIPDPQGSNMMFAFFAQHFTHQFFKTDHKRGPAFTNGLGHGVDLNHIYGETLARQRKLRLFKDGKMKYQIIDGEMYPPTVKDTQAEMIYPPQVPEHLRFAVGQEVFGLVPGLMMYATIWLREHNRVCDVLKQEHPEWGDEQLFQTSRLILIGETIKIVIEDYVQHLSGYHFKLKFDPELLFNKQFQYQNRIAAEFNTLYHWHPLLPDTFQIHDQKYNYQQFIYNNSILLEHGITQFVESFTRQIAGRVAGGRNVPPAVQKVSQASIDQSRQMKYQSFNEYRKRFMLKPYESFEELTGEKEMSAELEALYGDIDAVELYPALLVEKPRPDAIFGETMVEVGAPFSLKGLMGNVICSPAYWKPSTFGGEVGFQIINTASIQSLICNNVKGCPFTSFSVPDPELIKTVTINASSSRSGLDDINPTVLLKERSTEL
Test: Inhibition of human recombinant COX-2 assessed as reduction in peroxidase activity using arachidonic acid as substrate preincubated for 60 mins followed by substrate addition for 2 secs by ADPH based fluorometric analysis
measuredEndpoint: pIC50
One number for each entry, as −log10 of the molar value.

A selection of reference data follows.
{"smiles": "Cc1cnc(OCC(C)(C)O)c(-c2ccc(S(C)(=O)=O)cc2)c1", "pIC50": 5.20}
{"smiles": "CCCCOc1nc(OCC2(O)CCC2)c(-c2ccc(S(C)(=O)=O)cc2)cc1CO", "pIC50": 6.92}
{"smiles": "CC(C)(O)COc1ncc(C(F)(F)F)cc1-c1ccc(S(C)(=O)=O)cc1", "pIC50": 6.41}

Now for the molecule whose pIC50 we want.
**Query** Field request: pIC50 | item: CCCCOc1nc(OCC(C)(C)O)c(-c2ccc(S(C)(=O)=O)cc2)cc1CO
**Result** 6.65
